The reader will find pKi measurements below, all made with cloned human H3 receptors (Homo sapiens, UniProt Q9Y5N1).
Sequence (Q9Y5N1 whole entry): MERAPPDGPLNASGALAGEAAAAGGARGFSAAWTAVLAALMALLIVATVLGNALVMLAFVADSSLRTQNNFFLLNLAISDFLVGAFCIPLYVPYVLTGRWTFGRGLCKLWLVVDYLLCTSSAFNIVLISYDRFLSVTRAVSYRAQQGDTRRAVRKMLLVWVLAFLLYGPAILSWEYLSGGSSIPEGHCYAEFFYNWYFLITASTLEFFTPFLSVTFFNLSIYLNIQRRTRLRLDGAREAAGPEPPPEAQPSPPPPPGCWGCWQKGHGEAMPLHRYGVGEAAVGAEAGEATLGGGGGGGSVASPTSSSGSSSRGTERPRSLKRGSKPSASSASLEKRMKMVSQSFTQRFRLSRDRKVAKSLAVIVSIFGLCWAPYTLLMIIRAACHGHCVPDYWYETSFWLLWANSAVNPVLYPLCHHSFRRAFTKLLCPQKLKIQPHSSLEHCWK
pKi: −log10 of the molar value.
attributeMeasured: pKi

[[record]]
molecule = "O=C(c1ccc2c(c1)CCN(C(=O)c1ccc(Cl)cc1)C2)N1CCCN(C2CCC2)CC1 [Example 133]"
obsvalue = 8.70


(A) O=C(C1CCCCC1)N1CCc2cc(CN3CCC[C@H]3CN3CCCC3)ccc2C1 [Example 169]
(B) O=C(c1ccc2c(c1)CCN(C(=O)c1ccc(F)c(O)c1)C2)N1CCN(C2CCC2)CC1 [Example 124]
(C) O=C(c1ccc2c(c1)CCN(C1CCCC1)C2)N1CCN2CCCCC2C1 (stereo not drawn) [Example 192]
(D) O=C(c1ccc2c(c1)CCN(C(=O)C1CCCC1)C2)N1CCN(C2CCC2)CC1 [Example 32]
(E) CN(C)[C@@H]1CCN(C(=O)c2ccc3c(c2)CCN(C(=O)C2CCCCC2)C3)C1 [Example 155]
Prompt: Place the items in sequence of falling pKi. In your reply, arrange the labels in the requested order.
Response: C, D, B, A, E
(C: 9.00, D: 8.30, B: 7.62, A: 6.57, E: 6.19)

(P) CC(C)N1CCN(C(=O)c2ccc3c(c2)CCN(C(=O)c2ccccc2)C3)CC1 [Example 28]
(Q) CC(C)S(=O)(=O)N1CCc2cc(C(=O)N3CCN(C4CCC4)CC3)ccc2C1 [Example 102]
Prompt: Higher pKi: P or Q ? Your answer should be the label of the entry you select.
Response: P

(a) COc1ccc(C(=O)N2CCc3cc(C(=O)N4CCN(C5CCC5)CC4)ccc3C2)cc1 [Example 112]
(b) O=C(c1ccc2c(c1)CCN(C(=O)c1ccccc1)C2)N1CCCN(C2CCC2)CC1 [Example 35]
Prompt: Lower value of pKi belongs to which: a or b ? Your answer should be the label of the entry you select.
Response: a

(P) O=C(c1ccc2c(c1)CCN(Cc1ccc(Cl)cc1)C2)N1CCN(C2CCC2)CC1 [Example 17]
(Q) O=C(c1ccc2c(c1)CN(C(=O)C1CCCCC1)CC2)N1CCCN(C2CCC2)CC1 [Example 38]
(R) CCC(=O)N1CCc2cc(C(=O)N3CCN(C4CCCC4)CC3)ccc2C1 [Example 63]
(S) O=C(c1ccc2c(c1)CCN(C(=O)C1CCCCC1)C2)N1CCN(C2CCCC2)CC1 [Example 159]
(T) O=C(c1ccc2c(c1)CCN(C(=O)c1ccc(Cl)cc1)C2)N1CCN(C2CCCCC2)CC1 [Example 77]
Prompt: Hi! Can you put these in order of pKi, lowest number first? In your reply, arrange the labels in the requested order.
Response: T, R, S, P, Q

(A) O=C(c1ccc2c(c1)CCN(C(=O)c1ccccc1Cl)C2)N1CCN2CCCCC2C1 (stereo not drawn) [Example 89]
(B) COC1CCCC(C(=O)N2CCc3cc(C(=O)N4CCCN(C5CCC5)CC4)ccc3C2)C1 (stereo not drawn) [Example 146]
(C) O=C(c1ccc2c(c1)CCN(C(=O)C1CCCCC1)C2)N1CCC(N2CCOCC2)CC1 [Example 158]
(D) O=C(c1ccc2c(c1)CCN(C(=O)c1ccc(F)cc1)C2)N1CCN(C2CCCC2)CC1 [Example 67]
(E) COc1cccc(C(=O)N2CCc3cc(C(=O)N4CCN(C5CCCCC5)CC4)ccc3C2)c1 [Example 79]
Prompt: Place the items in sequence of falling pKi. In your reply, arrange the labels in the requested order.
Response: B, A, D, E, C
(B: 9.00, A: 7.68, D: 7.28, E: 6.77, C: 5.39)

(P) O=C(c1cccc(Cl)c1)N1CCc2cc(C(=O)N3CCN4CCCCC4C3)ccc2C1 (stereo not drawn) [Example 90]
(Q) O=C(c1ccc2c(c1)CCN(C(=O)c1ccccc1F)C2)N1CCCN(C2CCC2)CC1 [Example 136]
Prompt: Higher pKi: P or Q ? Your answer should be the label of the entry you select.
Response: Q
(Q: 9.00, P: 7.72)

(1) O=C(c1ccccc1F)N1CCc2cc(C(=O)N3CCC[C@H]3CN3CCCC3)ccc2C1 [Example 56]
(2) CC(C)(C)c1ccc(C(=O)N2CCc3cc(C(=O)N4CCC[C@H]4CN4CCCC4)ccc3C2)cc1 [Example 49]
(3) CC(C)N1CCc2cc(C(=O)N3CCN4CCCCC4C3)ccc2C1 (stereo not drawn) [Example 175]
(4) COc1ccc(CC(=O)N2CCc3cc(C(=O)N4CCC[C@H]4CN4CCCC4)ccc3C2)cc1 [Example 61]
(5) O=C(c1ccc2c(c1)CCN(Cc1ccc(C(F)(F)F)cc1)C2)N1CCN(C2CC2)CC1 [Example 23]
Prompt: Place the items in sequence of falling pKi. In your reply, arrange the labels in the requested order.
Response: 3, 4, 1, 2, 5
(3: 8.70, 4: 8.15, 1: 7.64, 2: 7.34, 5: 6.94)

(A) N#Cc1cccc(C(=O)N2CCc3cc(C(=O)N4CCN5CCCCC5C4)ccc3C2)c1 (stereo not drawn) [Example 94]
(B) CC(=O)N1CCc2cc(C(=O)N3CCN(C4CCC4)CC3)ccc2C1 [Example 30]
Prompt: Higher pKi: A or B ? Your answer should be the label of the entry you select.
Response: A
(A: 7.66, B: 7.44)
